B1: ESRRG (parent)
chain: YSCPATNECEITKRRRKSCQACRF

Variants of: B1
assay_summary: protein stability index of a GFP-peptide fusion (GPS, HEK-293T) (PSI 1-6); higher = more stable;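 further: lentivirally expressed fusions sorted by FACS into six bins by GFP to DsRed ratio, PSI derived from sequencing read proportions per bin multiplied by bin number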
condition_info: c terminus: a fixed tail appended
test_readout: protein stability index

Please fill in: protein stability index reported for K13F = 2.67

Please fill in: protein stability index reported for C9Q = 3.47

Please fill in: protein stability index reported for S2L = 2.96

Please fill in: protein stability index reported for C3A = 4.23

Please fill in: protein stability index reported for P4C = 2.92

Please fill in: protein stability index reported for S2P = 2.98

Please fill in: protein stability index reported for S18Q = 3.6

Please fill in: protein stability index reported for K13Q = 3.45

Please fill in: protein stability index reported for R23F = 2.33

Please fill in: protein stability index reported for S18N = 3.44

Values from the supplement of paper PMC10567573
